Data origin, for the record: PubChem BioAssay (NCI)

# System: IGROV1 ovarian
# assay: NCI-60 one-dose screen, 48 h (100 = growth as untreated, 0 = no growth, -100 = all killed)
# experimental_context: 10 µM unless noted
Compounds without any hit were thinned out: in the full panel of roughly 83,000, 20% have a hit.
growth values for the molecules below.
Numbers only; they are read as %.

// worked examples, growth included
Request: Need growth of `O=C1c2ccccc2-c2c1nc1ccccc1[n+]2[O-]` , thanks.
Response: 99.9

Request: Same read-out for `Oc1[nH]c2ccc(Cl)cc2c1/C=c1/ccc2c(c1)N=C(c1ccc(C(F)(F)F)cc1)N=2` ?
Response: 76.8

Request: Similarly, `Nc1nc(SCc2ccccc2Cl)c(-c2ccccc2)c(SCc2ccccc2Cl)n1` ?
Response: 97.4

Request: Another molecule to check: `Cc1nn(-c2ccc(Br)cc2)c2nc3c(nc12)C(=O)C(=O)c1ccccc1-3`
Response: 81.9

Request: Input `COc1cc(C(=O)/C=C/c2cccnc2Nc2ccccc2)cc(OC)c1OC`
Response: -38.2

Request: Please do the same for `COc1ccc(OC)c(NC(=O)c2cc3oc4ccccc4c3cc2O)c1` as well.
Response: 56.1

Request: Now the same for `Fc1ccc(-c2nnc(-c3c(-c4ccc(F)cc4)nc4ncccn34)o2)cc1`
Response: 106

Request: And what about the molecule `COc1ccc(CCN2CCCN3C2=Nc2ccccc2S3(=O)=O)cc1` ?
Response: 50.8

---
Request: Item under review: `Cc1cc2c(cc1C)Nc1sc(NC(=O)CN3CCN(C)CC3)nc1C(=O)N2` . Reported growth?
Response: 112

Request: Try `CCOC(=O)c1ccccc1OC(=O)NNc1ccccc1` next.
Response: 60.4

* * *

# Test system: DU-145 prostate
# assay: NCI-60 one-dose screen, 48 h
# experimental_context: 10 µM unless noted
About 83,000 compounds went through this panel and 20% of them were active in at least one assay; those are over-represented in the sample as a whole. Calls of active or inactive are those of the source. The calls were made as follows: active = growth percent below 10; inactive = the rest.
Choose the fitting class; nothing outside label 1 (active), label 0 (inactive) is accepted.

// known answers, use as guide
Request: # fetch the recorded call for `Cc1ccc([N+](=O)[O-])cc1NC(=O)Nc1cccc(F)c1` here
Response: label 0

Request: Subsequent entry: O=c1[nH]c(=O)n(C2CC(O)C(CO)O2)cc1C(F)(F)F (configuration not stated)
Response: label 1

Request: Entry `O=C(OC[C@H]1O[C@H](OC(=O)c2cc(O)c(O)c(OC(=O)c3cc(O)c(O)c(O)c3)c2)[C@H](OC(=O)c2cc(O)c(O)c(OC(=O)c3cc(O)c(O)c(O)c3)c2)[C@@H](OC(=O)c2cc(O)c(O)c(OC(=O)c3cc(O)c(O)c(O)c3)c2)[C@@H]1OC(=O)c1cc(O)c(O)c(OC(=O)c2cc(O)c(O)c(O)c2)c1)c1cc(O)c(O)c(OC(=O)c2cc(O)c(O)c(O)c2)c1` please
Response: label 0

Request: Here is the next compound: `Clc1ccc(-n2cnc3c(Cl)ncnc32)cc1Cl`
Response: label 0

Request: Now try `N#Cc1ccc(NC(=O)Nc2ccc(Oc3ccc(NC(=O)Nc4ccc(C#N)cc4)cc3)cc2)cc1` .
Response: label 0

More entries:
Request: Called result for `COc1ccc(-c2cc(C(=O)Nc3nc4cc(C)c(C)cc4s3)nc3cc(-c4ccccc4)nn23)cc1OC`
Response: label 0

Request: Please do the same for `ClC1=C(Cl)C(Cl)=C(Cl)C1=C/C=C/c1ccccc1` as well.
Response: label 1
